I'd appreciate it if you could supply IC50 values for the items below.
TGT: NR1/NR2A (Homo sapiens (Human), UniProt Q05586+Q12879)
Sequence (Q12879 23-1464, other chains not shown): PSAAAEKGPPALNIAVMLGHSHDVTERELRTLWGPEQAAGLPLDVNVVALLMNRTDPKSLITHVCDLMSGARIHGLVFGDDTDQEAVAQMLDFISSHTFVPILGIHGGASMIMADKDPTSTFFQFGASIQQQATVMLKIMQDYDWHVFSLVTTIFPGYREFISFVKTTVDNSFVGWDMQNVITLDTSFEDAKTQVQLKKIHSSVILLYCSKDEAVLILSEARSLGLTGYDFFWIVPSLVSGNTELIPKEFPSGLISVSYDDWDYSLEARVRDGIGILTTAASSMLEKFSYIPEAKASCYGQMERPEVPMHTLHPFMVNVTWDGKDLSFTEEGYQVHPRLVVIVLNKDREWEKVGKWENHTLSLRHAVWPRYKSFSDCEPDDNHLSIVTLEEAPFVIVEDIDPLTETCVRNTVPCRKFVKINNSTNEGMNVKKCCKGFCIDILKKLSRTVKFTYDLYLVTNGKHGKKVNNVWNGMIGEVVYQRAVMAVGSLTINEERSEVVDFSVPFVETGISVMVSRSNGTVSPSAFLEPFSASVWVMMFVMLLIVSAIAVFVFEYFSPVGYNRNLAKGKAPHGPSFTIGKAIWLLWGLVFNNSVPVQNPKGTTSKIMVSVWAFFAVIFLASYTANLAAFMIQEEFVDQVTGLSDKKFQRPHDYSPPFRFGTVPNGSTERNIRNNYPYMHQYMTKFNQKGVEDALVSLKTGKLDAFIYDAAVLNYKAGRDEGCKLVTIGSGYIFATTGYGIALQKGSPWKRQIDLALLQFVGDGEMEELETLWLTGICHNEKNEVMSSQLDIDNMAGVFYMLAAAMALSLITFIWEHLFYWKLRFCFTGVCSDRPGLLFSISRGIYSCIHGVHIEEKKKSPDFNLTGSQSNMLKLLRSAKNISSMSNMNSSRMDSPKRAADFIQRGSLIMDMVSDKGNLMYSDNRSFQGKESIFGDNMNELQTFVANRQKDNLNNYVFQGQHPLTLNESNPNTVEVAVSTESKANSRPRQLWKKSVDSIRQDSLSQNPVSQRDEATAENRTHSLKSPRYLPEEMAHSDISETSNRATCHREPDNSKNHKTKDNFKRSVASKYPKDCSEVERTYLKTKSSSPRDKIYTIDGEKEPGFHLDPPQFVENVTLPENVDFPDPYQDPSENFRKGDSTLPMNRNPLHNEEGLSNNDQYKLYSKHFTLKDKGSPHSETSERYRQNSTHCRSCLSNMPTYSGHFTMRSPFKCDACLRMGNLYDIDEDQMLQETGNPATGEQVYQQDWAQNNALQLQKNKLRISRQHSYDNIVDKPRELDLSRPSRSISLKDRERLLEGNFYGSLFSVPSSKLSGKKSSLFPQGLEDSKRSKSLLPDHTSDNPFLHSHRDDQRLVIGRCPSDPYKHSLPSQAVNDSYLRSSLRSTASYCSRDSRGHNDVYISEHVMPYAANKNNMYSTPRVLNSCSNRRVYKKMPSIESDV
ASSAY PROTOCOL: FDSS Ca2+ influx inhibition assay in HEK293 cells expressing NR1/NR2A
Assay type: cell-based
MEASUREMENT PARAMETERS: 3 μM glutamate, 3 μM glycine, 1 mM Ca2+, read-out: Binned Activity

Specify IC50 for Cc1ncc(CNC(=O)c2cnc(CNS(=O)(=O)c3ccc(Cl)c(F)c3)c(C)n2)s1 and stop.
1 to 10 µM

Specify IC50 for Cc1nc(C)c(CNC(=O)c2ccc(CNS(=O)(=O)c3ccc(F)c(Cl)c3)cn2)s1 and stop.
> 10 µM

Specify IC50 for Cc1ncc(CNC(=O)c2cnc(CNS(=O)(=O)c3ccc(Cl)c(F)c3)cn2)s1 and stop.
> 10 µM

Specify IC50 for Cn1ccnc1CNC(=O)c1cnc(CNS(=O)(=O)c2ccc(F)c(Cl)c2)cn1 and stop.
> 10 µM

Specify IC50 for O=C(NCc1ccncc1)c1cnc(CNS(=O)(=O)c2ccc(F)c(Cl)c2)cn1 and stop.
1 to 10 µM
